Target: HLA-DRB1*04:01 (Homo sapiens, UniProt P01903+P01911, A100K/A169T/F76Y/I96L/K127E/L162R/M171V/N62H/P40V/Q125Y/R42H/S133A/S149N/S66Y/V115G/V209L/W38E)
Construct: Human leukocyte antigen-DR molecules were immunopurified from homozygous EBV B lymphoblastoid cells; endogenous in cells
Assay: biochemical
Type: binding
Details: […]; mean of at least two independent experiments; read-out: IC50 DRB1*0401
*1 amine or outer side, *2 acyl side, *3 side chain or, on linkers, in order; H or OH if unused. Where a SMILES comes first, the peptide text is derived from it. [ ]: non-standard residue; d: D form. X1 = NCCCC[C@@H](C(=O)[*:2])N(C[C@@H]1CCCN1)[*:1]; Aib = CC(C)(N)C(=O)O
Mark each entry Fulfilled if its IC50 sits below 6 nM, and Not fulfilled for all others.

[
  {
    "compound": "CC(C)C[C@H](NC(=O)[C@H](CCCCN)NC(=O)[C@H](CC(C)C)NC(=O)[C@@H](NC(=O)[C@H](CC(N)=O)NC(=O)C(C)(C)NC(=O)[C@H](CCCCN)NC(=O)[C@@H](NC(=O)[C@H](Cc1ccc(O)cc1)NC(=O)[C@H](CCCCN)NC(=O)[C@@H]1CCCN1)C(C)C)[C@@H](C)O)C(=O)N[C@@H](C)C(=O)N[C@H](C(=O)O)[C@@H](C)O",
    "qualitative_label": "Not fulfilled"
  },
  {
    "compound": "CC(C)C[C@H](NC(=O)[C@H](CCCCN)NC(=O)[C@H](CC(C)C)NC(=O)[C@@H](NC(=O)[C@H](CC(N)=O)NC(=O)[C@H](CCC(N)=O)NC(=O)[C@H](CCCCN)NC(=O)[C@@H](NC(=O)[C@H](Cc1ccc(O)cc1)NC(=O)[C@H](CCCCN)NC[C@@H]1CCCN1)C(C)C)[C@@H](C)O)C(=O)N[C@@H](C)C(=O)N[C@H](C(=O)O)[C@@H](C)O [Rd1] (H-[X1]YVKQNTLKLAT-OH; N-terminus and C-terminus assumed)",
    "qualitative_label": "Not fulfilled"
  },
  {
    "compound": "CC(C)C[C@H](NC(=O)[C@@H](NC(=O)[C@H](CC(N)=O)NC(=O)[C@H](CCC(N)=O)NC(=O)[C@H](CCCCN)NC(=O)[C@@H](NC(=O)[C@H](Cc1ccc(O)cc1)NC(=O)[C@H](CCCCN)NC(=O)[C@@H]1CCCN1)C(C)C)[C@@H](C)O)C(=O)N[C@@H](CCCCN)C(=O)NC(C)(C)C(=O)N[C@@H](C)C(=O)N[C@H](C(=O)O)[C@@H](C)O",
    "qualitative_label": "Not fulfilled"
  },
  {
    "compound": "CC(C)C[C@H](NC(=O)[C@H](CCCCN)NC(=O)[C@H](CC(C)C)NC(=O)[C@@H](NC(=O)[C@H](CC(N)=O)NC(=O)[C@H](CCC(N)=O)NC(=O)[C@H](CCCCN)NC(=O)[C@@H](NC(=O)C(C)(C)NC(=O)[C@H](CCCCN)NC(=O)[C@@H]1CCCN1)C(C)C)[C@@H](C)O)C(=O)N[C@@H](C)C(=O)N[C@H](C(=O)O)[C@@H](C)O",
    "qualitative_label": "Not fulfilled"
  },
  {
    "compound": "CC(C)C[C@H](NC(=O)[C@H](CCCCN)NC(=O)[C@H](CC(C)C)NC(=O)[C@@H](NC(=O)[C@H](CC(N)=O)NC(=O)[C@H](CCC(N)=O)NC(=O)[C@H](CCCCN)NC(=O)[C@@H](NC(=O)[C@H](Cc1ccc(O)cc1)NC(=O)[C@H](CCCCN)NC(=O)C(C)(C)N)C(C)C)[C@@H](C)O)C(=O)N[C@@H](C)C(=O)N[C@H](C(=O)O)[C@@H](C)O [Aib1] (H-[Aib]KYVKQNTLKLAT-OH)",
    "qualitative_label": "Not fulfilled"
  },
  {
    "compound": "CC(C)C[C@H](NC(=O)[C@@H](NC(=O)[C@H](CC(N)=O)NC(=O)[C@H](CCC(N)=O)NC(=O)[C@H](CCCCN)NC(=O)[C@@H](NC(=O)[C@H](Cc1ccc(O)cc1)NC(=O)[C@H](CCCCN)NC(=O)[C@@H]1CCCN1)C(C)C)[C@@H](C)O)C(=O)N[C@@H](CCCCN)C(=O)N[C@@H](CC(C)C)C(=O)N(C)CC(=O)N[C@H](C(=O)O)[C@@H](C)O",
    "qualitative_label": "Fulfilled"
  }
]
